biological target: Epidermal growth factor receptor (EGFR)(L858R)(T790M) (Homo sapiens, UniProt P00533, L858R/T790M); assay: Inhibitory Activity for EGFR (L858R/T790M) Kinase
Sequence (P00533 25-1210 T790M/L858R limits assumed): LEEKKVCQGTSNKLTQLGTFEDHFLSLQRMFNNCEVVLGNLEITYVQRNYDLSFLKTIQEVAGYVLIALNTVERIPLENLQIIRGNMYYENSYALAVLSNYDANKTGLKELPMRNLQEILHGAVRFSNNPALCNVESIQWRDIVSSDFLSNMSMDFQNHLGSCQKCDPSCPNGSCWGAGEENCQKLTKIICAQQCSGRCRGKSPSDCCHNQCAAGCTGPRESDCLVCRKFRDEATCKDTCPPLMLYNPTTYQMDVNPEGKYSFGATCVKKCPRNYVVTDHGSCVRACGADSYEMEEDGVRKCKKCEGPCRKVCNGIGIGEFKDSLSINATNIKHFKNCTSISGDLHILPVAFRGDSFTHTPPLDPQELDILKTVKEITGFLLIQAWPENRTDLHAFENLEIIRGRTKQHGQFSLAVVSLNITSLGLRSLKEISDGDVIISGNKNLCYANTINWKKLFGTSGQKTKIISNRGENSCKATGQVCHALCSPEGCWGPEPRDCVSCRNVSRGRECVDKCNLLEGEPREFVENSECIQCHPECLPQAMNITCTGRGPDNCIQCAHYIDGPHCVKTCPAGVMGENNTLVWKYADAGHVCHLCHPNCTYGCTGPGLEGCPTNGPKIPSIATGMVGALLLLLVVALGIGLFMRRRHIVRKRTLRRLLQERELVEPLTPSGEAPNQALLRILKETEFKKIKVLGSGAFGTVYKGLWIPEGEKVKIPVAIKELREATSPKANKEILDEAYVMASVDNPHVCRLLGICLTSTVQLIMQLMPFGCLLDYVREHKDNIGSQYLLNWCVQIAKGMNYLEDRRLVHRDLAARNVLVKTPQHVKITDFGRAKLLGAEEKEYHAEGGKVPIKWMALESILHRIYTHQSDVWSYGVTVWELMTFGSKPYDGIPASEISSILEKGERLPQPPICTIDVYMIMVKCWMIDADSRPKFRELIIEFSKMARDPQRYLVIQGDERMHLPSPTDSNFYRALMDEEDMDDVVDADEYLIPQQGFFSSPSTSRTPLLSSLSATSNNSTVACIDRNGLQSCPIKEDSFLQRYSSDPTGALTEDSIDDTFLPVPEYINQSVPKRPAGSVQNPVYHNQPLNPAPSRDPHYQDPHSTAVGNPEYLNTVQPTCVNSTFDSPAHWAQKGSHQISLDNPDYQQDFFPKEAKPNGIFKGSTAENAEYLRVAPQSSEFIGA
As shown below, each of these compounds has a reported IC50 value.
Numeric only. Scale: pM

Indicate the recorded IC50 value for this compound: "Cc1cc2cc(n1)-c1cnn(C)c1OCCC[C@@H](C1CC1)CN1/C(=N/C2=O)Nc2cc(N(C)C3COC3)ccc21"
18

Indicate the recorded IC50 value for this compound: "Cc1cc2cc(n1)-c1cnn(C3CC3)c1OCCC[C@@H](C)CN1/C(=N/C2=O)Nc2ccc(NCCN(C)C)cc21"
11

Indicate the recorded IC50 value for this compound: "CCN1CCC(Nc2ccc3c(c2)N2C[C@H](C4CC4)CCCOc4c(cnn4C)-c4cc(cc(C)n4)C(=O)/N=C/2N3)CC1"
17

Indicate the recorded IC50 value for this compound: "Cc1cc2cc(n1)-c1cnn(C)c1OCCC[C@@H](C1CC1)CN1/C(=N/C2=O)Nc2ccc(N[C@H]3C[C@@H](N(C)C)C3)cc21"
410

* * *

target: Epidermal growth factor receptor (Homo sapiens)
Sequence (P00533 whole entry): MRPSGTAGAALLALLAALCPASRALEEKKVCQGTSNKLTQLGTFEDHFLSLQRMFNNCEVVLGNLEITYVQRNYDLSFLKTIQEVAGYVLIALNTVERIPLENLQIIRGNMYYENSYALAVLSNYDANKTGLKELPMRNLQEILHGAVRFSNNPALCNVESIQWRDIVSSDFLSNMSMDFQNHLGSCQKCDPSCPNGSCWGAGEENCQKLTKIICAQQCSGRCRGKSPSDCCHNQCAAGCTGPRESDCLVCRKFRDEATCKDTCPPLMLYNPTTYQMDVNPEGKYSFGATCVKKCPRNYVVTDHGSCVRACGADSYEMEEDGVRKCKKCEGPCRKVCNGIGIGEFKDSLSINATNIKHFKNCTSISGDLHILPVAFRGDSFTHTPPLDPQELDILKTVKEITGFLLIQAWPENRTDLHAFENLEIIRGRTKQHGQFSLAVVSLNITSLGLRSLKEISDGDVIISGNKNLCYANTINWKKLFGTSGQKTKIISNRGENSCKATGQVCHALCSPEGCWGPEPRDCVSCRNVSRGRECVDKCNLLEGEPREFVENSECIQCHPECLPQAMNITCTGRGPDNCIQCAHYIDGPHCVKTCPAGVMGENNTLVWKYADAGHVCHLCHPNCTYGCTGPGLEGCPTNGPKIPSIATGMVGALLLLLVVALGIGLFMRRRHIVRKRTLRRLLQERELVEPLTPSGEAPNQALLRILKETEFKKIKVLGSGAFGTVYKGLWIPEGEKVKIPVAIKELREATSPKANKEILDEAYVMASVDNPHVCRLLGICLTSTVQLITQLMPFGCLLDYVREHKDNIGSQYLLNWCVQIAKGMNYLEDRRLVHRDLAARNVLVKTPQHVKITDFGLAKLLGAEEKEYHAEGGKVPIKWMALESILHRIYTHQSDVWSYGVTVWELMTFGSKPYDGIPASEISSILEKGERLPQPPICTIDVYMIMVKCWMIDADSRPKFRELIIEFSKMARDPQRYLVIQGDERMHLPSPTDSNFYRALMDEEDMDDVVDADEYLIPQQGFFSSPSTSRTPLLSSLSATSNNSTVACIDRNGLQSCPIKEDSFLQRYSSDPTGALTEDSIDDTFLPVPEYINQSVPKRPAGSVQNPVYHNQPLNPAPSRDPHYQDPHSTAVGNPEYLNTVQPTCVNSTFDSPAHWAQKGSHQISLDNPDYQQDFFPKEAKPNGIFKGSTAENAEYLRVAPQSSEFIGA
As shown below, each of these molecules has a reported IC50 value.
Numeric only. Scale: nM

molecule	study system	IC50 / nM
Cc1cc2cc(n1)-c1cnn(C)c1OCCC[C@@H](C1CC1)CN1/C(=N/C2=O)Nc2ccc(NCCN(C)C)cc21 [US20250034165, Example 28]	Epidermal growth factor receptor (Homo sapiens)	0.45
CNCCCNc1ccc2c(c1)N/C1=N\C(=O)c3cc(C)nc(c3)-c3cnn(C)c3OCCC[C@@H](C3CC3)CN12 [US20250034165, Example 49]	Epidermal growth factor receptor (Homo sapiens)	2.2

Let us examine a further case.
Indicate the recorded IC50 value for this molecule: Cc1cc2cc(n1)-c1cnn(C)c1OCCC[C@@H](C1CC1)CN1/C(=N/C2=O)Nc2cc(NC3CN(C)C3)ccc21 [US20250034165, Example 33]
0.47

* * *

biological target: Epidermal growth factor receptor (EGFR)(L858R)(T790M) (Homo sapiens, UniProt P00533, L858R/T790M); experiment: Inhibitory Activity for EGFR (L858R/T790M) Kinase
readout kind: pIC50
The meaning of pIC50 here: minus log10 of the concentration in molar units.

1) Cc1cc2cc(n1)-c1cnn(C)c1OCCC[C@@H](C1CC1)CN1/C(=N/C2=O)Nc2ccc(NC3CCN(C)CC3)cc21 10.80
2) Cc1cc2cc(n1)-c1cnn(C)c1OCCC[C@@H](C1CC1)CN1/C(=N/C2=O)Nc2ccc(N[C@H]3CC[C@H](N(C)C)CC3)cc21 9.64
3) Cc1cc2cc(n1)-c1cnn(C)c1OCCC[C@@H](C1CC1)CN1/C(=N/C2=O)Nc2cc(N[C@H](C)CN(C)C)ccc21 9.85
4) Cc1cc2cc(n1)-c1cnn(C)c1OCCC[C@@H](C1CC1)CN1/C(=N/C2=O)Nc2cc(N[C@H](C)CCN3CCCCC3)ccc21 10.06
5) Cc1cc2cc(n1)-c1cnn(C3CC3)c1OCCC[C@@H](C)CN1/C(=N/C2=O)Nc2cc(NCCN3CCOCC3)ccc21 10.04

Let us examine a further case.
Indicate the recorded pIC50 value for this compound: "Cc1cc2cc(n1)-c1cnn(C)c1OCCC[C@@H](C1CC1)CN1/C(=N/C2=O)Nc2ccc(N[C@@H](C)CN3CCCCC3)cc21"
9.85

Origin of the recorded values: BindingDB's records for patent US20250034165
